# maps each entry to its self-cleavage
B1: HDV Ribozyme (parent)
chain: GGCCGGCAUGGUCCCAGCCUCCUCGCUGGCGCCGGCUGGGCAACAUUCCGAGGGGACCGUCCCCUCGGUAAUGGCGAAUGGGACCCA

- Variants of: B1
- assay-info: self-cleavage, relative activity (ratio to wild type); higher = more cleavage; co-transcriptional
// print number alone

input: Answer with reported self-cleavage of U20A C61G
output: 0.0536

input: Answer with reported self-cleavage of A45U A56U
output: 0.831

input: Answer with reported self-cleavage of C18A U72G
output: 0.19
